# protocol-description: Remaining amount by RP-HPLC after pepsin treatment
# Assay type: in vitro ADME
# assay-context: isolated enzyme pepsin; pepsin treated for 3 h; read-out RP-HPLC; Table S2
Where a SMILES comes first, the peptide text is derived from it.
metric: remaining at 3 h (%)
State the answer as a number, implicitly in %.

INSERT INTO measurements (compound, metric, reported_result) VALUES
  ('CSCC[C@H](NC=O)C(=O)N[C@@H](CCSC)C(=O)N[C@H](C(=O)NCC(=O)N[C@@H](CC(N)=O)C(=O)N[C@@H](C)C(=O)N[C@@H](CC(=O)O)C(=O)NP(=O)(OCCCN)OC[C@H]1O[C@@H](n2cnc3c(N)ncnc32)[C@H](O)[C@@H]1O)[C@@H](C)O (some centres unmarked) [R2M] (HELM PEPTIDE1{[O=C[*:2]].M.M.T.G.N.A.[NCCCOP(=O)(NC(=O)[C@H](CC(=O)O)N[*:1])OC[C@H]1O[C@@H](n2cnc3c(N)ncnc32)[C@H](O)[C@@H]1O]}$$$$V2.0)', 'remaining at 3 h', 88.7);

API: the following record is the query input.
Q. Fill in reported remaining at 3 h for this entry: CSCC[C@H](NC=O)C(=O)N[C@@H](CC(C)C)C(=O)N[C@H](C(=O)NCC(=O)N[C@@H](CC(N)=O)C(=O)N[C@@H](C)C(=O)N[C@@H](CC(=O)O)C(=O)NP(=O)(OCCCN)OC[C@H]1O[C@@H](n2cnc3c(N)ncnc32)[C@H](O)[C@@H]1O)[C@@H](C)O (some centres unmarked) [R2L] (HELM PEPTIDE1{[O=C[*:2]].M.L.T.G.N.A.[NCCCOP(=O)(NC(=O)[C@H](CC(=O)O)N[*:1])OC[C@H]1O[C@@H](n2cnc3c(N)ncnc32)[C@H](O)[C@@H]1O]}$$$$V2.0)
A. 79.2

---

Reported remaining at 3 h values for a set of molecules
# Test system: chymotrypsin
# protocol-description: Remaining amount by RP-HPLC after chymotrypsin treatment
# Format: in vitro ADME
# assay-context: chymotrypsin (isolated protease); chymotrypsin treated for 3 h; read-out RP-HPLC; Table S2
Where a SMILES comes first, the peptide text is derived from it.
Express your answer in %, writing the number without its unit.

INSERT INTO results (molecule, reported_result) VALUES
  ('CSCC[C@H](NC=O)C(=O)N[C@@H](CC(N)=O)C(=O)N[C@H](C(=O)NCC(=O)N[C@@H](CC(N)=O)C(=O)N[C@@H](C)C(=O)N[C@@H](CC(=O)O)C(=O)NP(=O)(OCCCN)OC[C@H]1O[C@@H](n2cnc3c(N)ncnc32)[C@H](O)[C@@H]1O)[C@@H](C)O (some centres unmarked) [R2N] (HELM PEPTIDE1{[O=C[*:2]].M.N.T.G.N.A.[NCCCOP(=O)(NC(=O)[C@H](CC(=O)O)N[*:1])OC[C@H]1O[C@@H](n2cnc3c(N)ncnc32)[C@H](O)[C@@H]1O]}$$$$V2.0)', 37.7);

Now for a further molecule.
Q. Tell us which remaining at 3 h value is on record for CSCC[C@H](NC=O)C(=O)N1CCC[C@H]1C(=O)N[C@H](C(=O)NCC(=O)N[C@@H](CC(N)=O)C(=O)N[C@@H](C)C(=O)N[C@@H](CC(=O)O)C(=O)NP(=O)(OCCCN)OC[C@H]1O[C@@H](n2cnc3c(N)ncnc32)[C@H](O)[C@@H]1O)[C@@H](C)O (some centres unmarked) [R2P] (HELM PEPTIDE1{[O=C[*:2]].M.P.T.G.N.A.[NCCCOP(=O)(NC(=O)[C@H](CC(=O)O)N[*:1])OC[C@H]1O[C@@H](n2cnc3c(N)ncnc32)[C@H](O)[C@@H]1O]}$$$$V2.0)
A. 42.8

---

# Test system: Yej^+rimL^− strain
# protocol-description: organism not typed
# Format: cell-based
# assay-context: agar diffusion; 200 μL fermentation supernatant; 1 × 10^5 CFU/mL; 4 °C 1 h then 37 °C 24 h; chloramphenicol 100 μL of 0.25 μg/mL; dash = no zone
Where a SMILES comes first, the peptide text is derived from it.
Kindly return met if reported Diameters of the inhibition zones, Trypsin-Untreated Group, Yej^+rimL^− is no lower than 20 mm; return not met if it is lower.

INSERT INTO assay_data (compound, assigned_class) VALUES
  ('CSCC[C@H](NC=O)C(=O)N[C@@H](CO)C(=O)N[C@H](C(=O)NCC(=O)N[C@@H](CC(N)=O)C(=O)N[C@@H](C)C(=O)N[C@@H](CC(=O)O)C(=O)NP(=O)(OCCCN)OC[C@H]1O[C@@H](n2cnc3c(N)ncnc32)[C@H](O)[C@@H]1O)[C@@H](C)O (stereo partly shown) [R2S] (HELM PEPTIDE1{[O=C[*:2]].M.S.T.G.N.A.[NCCCOP(=O)(NC(=O)[C@H](CC(=O)O)N[*:1])OC[C@H]1O[C@@H](n2cnc3c(N)ncnc32)[C@H](O)[C@@H]1O]}$$$$V2.0)', 'not met');

Q. Please tell me: is the compound CSCC[C@H](NC=O)C(=O)N[C@@H](Cc1ccccc1)C(=O)N[C@H](C(=O)NCC(=O)N[C@@H](CC(N)=O)C(=O)N[C@@H](C)C(=O)N[C@@H](CC(=O)O)C(=O)NP(=O)(OCCCN)OC[C@H]1O[C@@H](n2cnc3c(N)ncnc32)[C@H](O)[C@@H]1O)[C@@H](C)O (stereo partly shown) [R2F] (HELM PEPTIDE1{[O=C[*:2]].M.F.T.G.N.A.[NCCCOP(=O)(NC(=O)[C@H](CC(=O)O)N[*:1])OC[C@H]1O[C@@H](n2cnc3c(N)ncnc32)[C@H](O)[C@@H]1O]}$$$$V2.0) at or over 20 mm in terms of Diameters of the inhibition zones, Trypsin-Untreated Group, Yej^+rimL^−?
A. not met

Q. Record CSCC[C@H](NC=O)C(=O)N[C@H](C(=O)N[C@H](C(=O)NCC(=O)N[C@@H](CC(N)=O)C(=O)N[C@@H](C)C(=O)N[C@@H](CC(=O)O)C(=O)NP(=O)(OCCCN)OC[C@H]1O[C@@H](n2cnc3c(N)ncnc32)[C@H](O)[C@@H]1O)[C@@H](C)O)[C@@H](C)O (stereo partly shown) [R2T] (HELM PEPTIDE1{[O=C[*:2]].M.T.T.G.N.A.[NCCCOP(=O)(NC(=O)[C@H](CC(=O)O)N[*:1])OC[C@H]1O[C@@H](n2cnc3c(N)ncnc32)[C@H](O)[C@@H]1O]}$$$$V2.0) ; criterion: Diameters of the inhibition zones, Trypsin-Untreated Group, Yej^+rimL^− no lower than 20 mm. Met?
A. met

Q. Dear colleague, could you confirm whether CSCC[C@H](NC=O)C(=O)N[C@@H](CC(C)C)C(=O)N[C@H](C(=O)NCC(=O)N[C@@H](CC(N)=O)C(=O)N[C@@H](C)C(=O)N[C@@H](CC(=O)O)C(=O)NP(=O)(OCCCN)OC[C@H]1O[C@@H](n2cnc3c(N)ncnc32)[C@H](O)[C@@H]1O)[C@@H](C)O (stereo partly shown) [R2L] (HELM PEPTIDE1{[O=C[*:2]].M.L.T.G.N.A.[NCCCOP(=O)(NC(=O)[C@H](CC(=O)O)N[*:1])OC[C@H]1O[C@@H](n2cnc3c(N)ncnc32)[C@H](O)[C@@H]1O]}$$$$V2.0) has Diameters of the inhibition zones, Trypsin-Untreated Group, Yej^+rimL^− at or above 20 mm?
A. not met

Q. Determine whether measured Diameters of the inhibition zones, Trypsin-Untreated Group, Yej^+rimL^− meets or exceeds 20 mm for CC[C@H](C)[C@H](NC(=O)[C@H](CCSC)NC=O)C(=O)N[C@H](C(=O)NCC(=O)N[C@@H](CC(N)=O)C(=O)N[C@@H](C)C(=O)N[C@@H](CC(=O)O)C(=O)NP(=O)(OCCCN)OC[C@H]1O[C@@H](n2cnc3c(N)ncnc32)[C@H](O)[C@@H]1O)[C@@H](C)O (stereo partly shown) [R2I] (HELM PEPTIDE1{[O=C[*:2]].M.I.T.G.N.A.[NCCCOP(=O)(NC(=O)[C@H](CC(=O)O)N[*:1])OC[C@H]1O[C@@H](n2cnc3c(N)ncnc32)[C@H](O)[C@@H]1O]}$$$$V2.0)
A. not met

Q. Is the recorded value of Diameters of the inhibition zones, Trypsin-Untreated Group, Yej^+rimL^− equal to or greater than 20 mm for this compound? CSCC[C@H](NC=O)C(=O)N[C@H](C(=O)N[C@H](C(=O)NCC(=O)N[C@@H](CC(N)=O)C(=O)N[C@@H](C)C(=O)N[C@@H](CC(=O)O)C(=O)NP(=O)(OCCCN)OC[C@H]1O[C@@H](n2cnc3c(N)ncnc32)[C@H](O)[C@@H]1O)[C@@H](C)O)C(C)C (stereo partly shown) [R2V] (HELM PEPTIDE1{[O=C[*:2]].M.V.T.G.N.A.[NCCCOP(=O)(NC(=O)[C@H](CC(=O)O)N[*:1])OC[C@H]1O[C@@H](n2cnc3c(N)ncnc32)[C@H](O)[C@@H]1O]}$$$$V2.0)
A. met
